Biological target: T1, HU-RAGE-SA (human, UniProt Q15109 23-342)
T1 construct: extracellular domain; Directly immobilized on a CM5 chip (~100 RU); also called hRAGE-SA; soluble human streptavidin-tagged RAGE; not shown: streptavidin tag (SA)
T1 sequence (Q15109 23-342): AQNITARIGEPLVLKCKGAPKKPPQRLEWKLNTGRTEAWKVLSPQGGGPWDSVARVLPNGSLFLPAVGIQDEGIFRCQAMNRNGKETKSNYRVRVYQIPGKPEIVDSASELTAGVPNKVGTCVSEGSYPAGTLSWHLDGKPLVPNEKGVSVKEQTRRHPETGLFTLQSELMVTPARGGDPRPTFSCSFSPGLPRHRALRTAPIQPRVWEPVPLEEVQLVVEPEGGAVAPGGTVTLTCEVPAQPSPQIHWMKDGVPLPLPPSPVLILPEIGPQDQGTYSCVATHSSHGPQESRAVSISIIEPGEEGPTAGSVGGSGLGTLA
Experiment: BIAcore kd against parental M4 scFv-Fc
Property Name: Fold change in kd (fold)
Write the answer as a number in fold, unit excluded.

2E6 scFv-Fc fusion (Fc fusion, also called 2E6 (c); not shown: wild-type human IgG Fc (hinge and constant domains)) DIQMTQSPSSLSASVGDRVTITCRASQDVGIYVNWFQQKPGKAPRRLIYRATNLADGVPSRFSGSRSGTDFTLTISSLQPEDFATYYCLEFDEHPLTFGGGTKVEIKDGGGSGGGGSGGGGNSEVQLVESGVGLVQPGGSLRLSCAASGFTFNNYWMTWVRQAPGKGLEWVASIDNSGDNTYYPDSVKDRFTISRDNAKNSLYLQMNSLRAEDTAVYYCARGGDITNGLDYWGQGTLVTVSS ... 25.7
10D8 scFv-Fc fusion (Fc fusion, also called 10D8 (b); not shown: wild-type human IgG Fc (hinge and constant domains)) DIQMTQSPSSLSASVGDKVTITCRASQDVGFYVNWFQQKPGKAPRRLIYRATNLADGVPSRFSGSRSGTDFTLTISSLQPEDFATYYCLEFDEHPLTFGGGTKVEIKDGGGSGNGGSGGGGSSEVQLVESGGELVQPGGSLRLSCAASGFTFNNYWMTWVRQAPGKGLEWVASIDNSGDNTYYPDSVKDRFTISRDNAKNSLYLQMNSLRAEDTAVYYCARGGDITTGFDYWGQGTLVTVSS ... 51.8

Please examine the following record next.
Exercise: Give the value of Fold change in kd reported for the following: 6C2 scFv-Fc fusion (Fc fusion, not shown: wild-type human IgG Fc (hinge and constant domains)) DIQMTQSPSSLSASVGDRVTITCRASQDVGIYVNWFQQKPGKAPRRLIYRATNLADGVPSRFSGSRSGTDFTLTISSLQPEDFATYYCLEFDEHPLTFGGGTKVEIKDGGGSGGGGSGGGGSSEVQLVESGGGLVQPGGSLRLSCAASGFTFNNYWMTWVRQAPGKGLEWVASIDNSGDNTYYPDSVKDRFTISRDNAKNSLYLQMNSLRAEDTAVYYCARGGDIKVSLDRWGQGTLVTVSS
Key: 19.2
